System: HCV GT-1b Con1 subgenomic replicon
procedure.summary: HCV GT1b replicon luciferase reporter assay (2209-23 cells)
Assay type: cell-based
experimental.context: Hepatitis C virus, 2209-23 cell line (Huh-7 with GT-1b Con1 subgenomic replicon), Renilla luciferase read 72 hours after compound addition
recorded.metric: IC50 (nM)
Your answer is read as nM, so omit the unit and give the number.

Worked set:
{"chemical.string": "COC(=O)N[C@H](C(=O)N1CCC[C@H]1C(=O)NC(=O)Nc1ccc(-c2ccc(-c3cnc([C@@H]4CCCN4C(=O)[C@@H](NC(=O)OC)C(C)C)[nH]3)cc2)cc1F)C(C)C", "IC50 / nM": 0.064}
{"chemical.string": "COC(=O)N[C@H](C(=O)N1CCC[C@H]1C(=O)NC(=O)Nc1cccc(-c2ccc(-c3cnc([C@@H]4CCCN4C(=O)[C@@H](NC(=O)OC)C(C)C)[nH]3)cc2)c1)C(C)C", "IC50 / nM": 8.42}
{"chemical.string": "COC(=O)N[C@H](C(=O)N1CCC[C@H]1C(=O)NC(=O)NCc1ccc(-c2ccc(-c3cnc([C@@H]4CCCN4C(=O)[C@@H](NC(=O)OC)C(C)C)[nH]3)cc2)cc1)C(C)C", "IC50 / nM": 1.98}
{"chemical.string": "COC(=O)N[C@H](C(=O)N1CCC[C@H]1c1ncc(-c2ccc(-c3ccc(NC(=O)NC(=O)[C@@H]4CCCN4C(=O)[C@H](NC(=O)OC)c4ccccc4)cc3)cc2)[nH]1)C(C)C", "IC50 / nM": 0.009}

Dear colleague, I am looking for the recorded IC50 of the following compound: COC(=O)N[C@H](C(=O)N1CCC[C@H]1c1ncc(-c2ccc(-c3nc4ccc(NC(=O)NC(=O)[C@@H]5CCCN5C(=O)OC(C)(C)C)cc4s3)cc2)[nH]1)C(C)C
7.75

====

System: HCV GT-1b Con1 subgenomic replicon
procedure.summary: HCV GT1b replicon luciferase reporter assay (2209-23 cells)
Format: cell-based
experimental.context: Hepatitis C virus, 2209-23 cell line (Huh-7 with GT-1b Con1 subgenomic replicon), Renilla luciferase read 72 hours after compound addition
Reported IC50 values for a set of compounds
// note: answer is a bare numeric in pM

Solved entries (count: 3):
{"compound": "COC(=O)N[C@H](C(=O)N1CCC[C@H]1c1ncc(-c2ccc(-c3ccc(CNC(=O)NC(=O)[C@@H]4CCCN4C(=O)[C@H](NC(=O)OC)c4ccccc4)cc3)cc2)[nH]1)C(C)C [Compound I-6]", "quantity.unit": "pM", "IC50": 6740}
{"compound": "COC(=O)N[C@H](C(=O)N1CCC[C@H]1c1ncc(-c2ccc(-c3nc4ccc(NC(=O)NC(=O)[C@@H]5CCCN5C(=O)[C@@H](c5ccccc5)N(C)C)cc4s3)cc2)[nH]1)C(C)C [Compound I-11]", "quantity.unit": "pM", "IC50": 29}
{"compound": "COC(=O)N[C@H](C(=O)N1CCC[C@H]1c1ncc(-c2ccc(-c3ccc(NC(=O)NC(=O)[C@@H]4CCCN4C(=O)[C@@H](c4ccccc4)N(C)C)cc3)cc2)[nH]1)C(C)C [Compound I-4]", "quantity.unit": "pM", "IC50": 7}

Now for another entry.
Item COC(=O)N[C@H]1CCC(=O)N2CCC[C@@H](c3ncc(-c4ccc(-c5ccc(NC(=O)NC(=O)[C@@H]6CCCN6C(=O)[C@H](NC(=O)OC)c6ccccc6)cc5)cc4)[nH]3)N2C1=O [Compound I-7] with HCV GT-1b Con1 subgenomic replicon - IC50?
427
